Attribute: growth inhibition
Experiment: NCI Yeast Anticancer Drug Screen. Data for the cln2 rad14 strain (AID 165);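 also: 0% = growth equal to vehicle treated cultures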
Conditions: S. cerevisiae cln2 rad14 strain, at 5.0 µM (retest, dose inferred, filed as 0.5), active compounds read high
Protocol: Growth inhibition of yeast strains with defined genetic alterations is measured as a screen for potential anti-cancer activity. Selected strains with alterations in DNA damage repair or cell cycle control were exposed to compounds and growth inhibition was measured relative to vehicle treated controls. The strain used in this assay is cln2 rad14
Compounds without any hit were thinned out: in the full panel of roughly 79,000, 15% have a hit.
Number in %, nothing else.

Here is how some compounds turned out for growth inhibition.
> print(dat)
                                   compound  reading.unit  result.value
1       CCCC(C)(O)C(C)CC (stereo not given)             %            -3
2          Brc1ccc(C2c3ccccc3-c3ccccc32)cc1             %             0
3  COC(=O)NNc1c([N+](=O)[O-])cnn(-c2ccccc2)c1=O             %             9

Prompt line: # lookup: growth inhibition of `Cc1cc(C)nc(/C=C/c2ccccc2)c1`
Response line: -1

Prompt line: Same question for `Cc1cc(SCC(=O)c2ccc(Cl)cc2)cc(C)[o+]1` please.
Response line: -13

Prompt line: Another compound to check: `CC(=O)Nc1ccc(-c2ccccc2)cc1[N+](=O)[O-]`
Response line: 0

Prompt line: Further, for `COC(=O)CSC(=S)Nc1ccc(Cl)cc1` ?
Response line: -5

Prompt line: // same read-out, input: `Cn1nc(-c2ccccc2NC(=O)C(F)(F)F)c(=O)n(C)c1=S`
Response line: -3
